meta.source: PubChem BioAssay (NCI)

ASSAY_COMMENT: NCI Yeast Anticancer Drug Screen. Data for the cln2 rad14 strain (AID 165)
TEST_CONDITIONS: S. cerevisiae cln2 rad14 strain, at 50.0 µM
Compounds without any hit were thinned out: in the full panel of roughly 79,000, 15% have a hit. Activity calls are given as the source filed them. Rule as the data show it: active = growth inhibition above about 70%; inactive = the rest.
Tick one outcome: YES for active, NO for inactive

COc1cc(C=O)ccc1OC(C)=O :: NO
COc1ccc2ccccc2c1I :: NO
O=C(C[n+]1ccncc1)c1ccc2c(c1)CCCC2 :: NO
Cc1ccc(-n2nc(C)cc2C)nn1 :: NO

Moving on to the next compound.
Task: Please indicate how the test categorized COc1cc(O)c2c(c1)C(=O)c1cc3c(c(O)c1C2=O)CC(OC)C(C)(O)C3O (stereo not given) .
Result: YES
